System: Mus musculus
Assay: Chloroquine resistant reversal activity was determined in female mice after intraperitoneal administration of 50 mg and 4 mg of chloroquine
Assay type: functional
Parameter: Reversal activity (%)
Express the result in % but write the number alone.

Some entries whose results are on file:
| Molecule | Measurement |
| --- | --- |
| C=CC(O)CN1CCN(C2c3ccccc3CCc3ccccc32)CC1 (stereo unspecified) | 0 |
| CCC(O)CN1CCN(C2c3ccccc3CCc3ccccc32)CC1 (stereo unspecified) | 0 |

Fill in the blank: the reported Reversal activity of "CC(=O)OCC#CCN1CCN(C2c3ccccc3CCc3ccccc32)CC1" is ____.
0

---

System: Mus musculus
Assay: Chloroquine resistant reversal activity was determined in female mice after intraperitoneal administration of 50 mg and 4 mg of chloroquine
Format: functional
// values below are reported Reversal activity
Reply with the number and its unit after it.

Some entries whose results are on file:
| Compound | Assay target | Measurement |
| --- | --- | --- |
| C=CC(C)N1CCN(C2c3ccccc3CCc3ccccc32)CC1 (stereo not drawn) | Mus musculus | 0% |
| OCC#CCN1CCN(C2c3ccccc3CCc3ccccc32)CC1 | Mus musculus | 0% |

From here, focus on the item given below.
Query Reversal activity on Mus musculus for "Cl.c1ccc2c(c1)CCc1ccccc1C2N1CCNCC1"
2%
